- measurement_target: Cy5-labelled Mcl1 (amino acids 171-321) C286S protein (UniProtKB Q07820) (Homo sapiens (Human), UniProt Q07820, C286S)
- Sequence (Q07820 171-321 C286S): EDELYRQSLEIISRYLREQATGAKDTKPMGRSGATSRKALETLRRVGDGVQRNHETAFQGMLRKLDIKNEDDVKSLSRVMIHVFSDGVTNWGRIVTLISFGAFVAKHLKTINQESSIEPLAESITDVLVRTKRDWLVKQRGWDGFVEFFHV
- procedure_details: Inhibition of Mcl-1 by the fluorescence quenching assay (Example A, Method B)
- Format: binding
pKi: −log10 of the molar value.
attribute_measured: pKi

Past entries and their recorded results:
CC(CC1Cc2ccccc2[C@]12CC[C@@](Nc1cccc(Cl)c1)(C(=O)O)CC2)C(C)Oc1ccnc2c1CCC2 (single isomer, unassigned) [Example 615]    6.62
CC(OC(=O)N1CCOCC1)OC(=O)[C@]1(Nc2cccc(Cl)c2)CC[C@@]2(CC1)c1cc3c(cc1C[C@@H]2C[C@@H](C)COc1ccnc2c1[C@H](C)CCC2)OCO3 (some centres unmarked)    7.19
COCc1ccc2c(c1)[C@]1(CC[C@@](Nc3cccc(Cl)c3)(C(=O)O)CC1)[C@@H](C[C@@H](C)COc1ccnc3c1[C@H](C)CCC3)C2    10.57
CCOc1cc2c(cc1F)C[C@H](C[C@@H](C)COc1ccnc3c1[C@H](C)CCC3)[C@]21CC[C@](Nc2cccc(Cl)c2)(C(=O)O)CC1    10.11
C[C@@H](COc1ccnc2c1[C@H](C)CC[C@H]2C)C[C@H]1Cc2cc3c(cc2[C@]12CC[C@@](Nc1cccc(Cl)c1)(C(=O)O)CC2)OCO3    10.08
O=C(O)[C@]1(Nc2cccc(Cl)c2)CC[C@]2(CC1)C(CC(F)COc1ccnc3c1CCCC3)=Cc1ccccc12 (single isomer, unassigned) [Example 506]    7.31

P. CCOc1ccc2c(c1)[C@]1(CC[C@@](Nc3ccc(F)c(Cl)c3)(C(=O)O)CC1)[C@@H](C[C@@H](C)COc1ccnc3c1[C@H](C)CCC3)C2
Q. CC1CCN(C)c2nccc(OC[C@H](C)C[C@H]3Cc4ccccc4[C@]34CC[C@@](Nc3cccc(Cl)c3)(C(=O)O)CC4)c21 (single isomer, unassigned) [Example 643]
Exercise: Decide: P or Q , by lowest recorded pKi. To answer, give the label that identifies your chosen option.
Key: Q

A. C[C@@H](COc1ccnc2c1C(F)CCC2)C[C@H]1Cc2ccccc2[C@]12CC[C@@](Nc1cccc(Cl)c1)(C(=O)O)CC2 (single isomer, unassigned) [Example 686]
B. C[C@@H](COc1ccnc2c1[C@H](C)CCC2)C[C@H]1Cc2ccccc2[C@]12CC[C@@](Nc1cccc(Br)c1)(C(=O)O)CC2
Exercise: Pick the one with the larger pKi: A vs B To answer, give the label that identifies your chosen option.
Key: B
(B: 9.35, A: 8.73)

====

- measurement_target: Mcl-1 protein (UniProtKB Q07820) (Homo sapiens (Human), UniProt Q07820)
- Sequence (Q07820 whole entry): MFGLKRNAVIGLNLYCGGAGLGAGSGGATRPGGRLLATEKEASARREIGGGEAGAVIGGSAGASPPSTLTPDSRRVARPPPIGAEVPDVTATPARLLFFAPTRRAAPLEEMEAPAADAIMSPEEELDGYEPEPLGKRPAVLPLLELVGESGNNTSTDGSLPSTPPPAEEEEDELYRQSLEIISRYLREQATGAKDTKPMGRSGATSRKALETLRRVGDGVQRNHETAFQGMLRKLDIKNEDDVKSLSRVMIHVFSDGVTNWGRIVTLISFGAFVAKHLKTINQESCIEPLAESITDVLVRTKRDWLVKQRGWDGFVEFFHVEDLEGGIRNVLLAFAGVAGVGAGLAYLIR
- procedure_details: Inhibition of Mcl-1 by the fluorescence polarisation assay (Example A, Method A)
- condition_info: fluorescence polarization assay
pKi: −log10 of the molar value.
attribute_measured: pKi

Past entries and their recorded results:
O=C(O)[C@]1(Nc2cccc(Cl)c2)CC[C@@]2(CC1)c1ccccc1CC2CCCOc1cncnc1 (some centres unmarked) [Example 450]    6.11
O=C(O)C1(Nc2cccc(Cl)c2)CCC2(C=Cc3cccnc32)CC1 (single isomer, unassigned) [Example 72]    3.72
COc1ccc(CCCC2Cc3ccccc3[C@]23CC[C@@](Nc2cccc(Cl)c2)(C(=O)O)CC3)cc1 (some centres unmarked) [Example 161]    6.35
Cc1ccccc1C1Cc2ccccc2C12CCC(Nc1cccc(Br)c1)(C(=O)O)CC2 (centres unmarked) [Example 214]    5.10
COc1cccc(CCOCC2=Cc3ccccc3[C@]23CC[C@@](Nc2cccc(Cl)c2)(C(=O)O)CC3)c1 [Example 418]    6.19

I. O=C(O)[C@]1(Nc2cccc(Cl)c2)CC[C@@]2(CC1)c1ccccc1CC2CCCN1CCOCC1 (some centres unmarked) [Example 196]
II. O=C(O)[C@]1(Nc2cccc(Cl)c2)CC[C@@]2(CC1)c1ccccc1CC2[C@H]1C[C@@H]1COc1ccnc2ccsc12 (single isomer, unassigned) [Example 104]
III. O=C(O)[C@]1(Nc2cccc(Cl)c2)CC[C@]2(CC1)C(COCCc1ccccc1F)=Cc1ccccc12 [Example 410]
IV. C[C@@H](COc1ccccc1)CC1Cc2ccccc2[C@]12CC[C@@](Nc1cccc(Cl)c1)(C(=O)O)CC2 (some centres unmarked) [Example 567]
V. CC1CCc2nccc(OC[C@H](C)CC3Cc4ccccc4[C@]34CC[C@@](Nc3cccc(Cl)c3)(C(=O)O)CC4)c21 (single isomer, unassigned) [Example 601]
Exercise: Hi! Can you put these in order of pKi, lowest number first? A ranking is expressed here by listing the labels in the requested order.
Key: I, II, III, IV, V

a. Cc1cccc(C2Cc3ccccc3[C@]23CC[C@@](Nc2cccc(Cl)c2)(C(=O)O)CC3)c1 (single isomer, unassigned) [Example 345]
b. O=C(O)[C@]1(Nc2cccc(Br)c2)CC[C@@]2(CC1)c1ccccc1CC2CCc1cccc2[nH]ccc12 (some centres unmarked) [Example 163]
Exercise: Decide: a or b , by lowest recorded pKi. To answer, give the label that identifies your chosen option.
Key: a

I. O=C(O)[C@]1(Nc2cccc(Br)c2)CC[C@@]2(CC1)c1ccccc1CC2CCc1cccnc1 (some centres unmarked) [Example 164]
II. O=C(O)[C@]1(Nc2cccc(Cl)c2)CC[C@]2(CC1)C(CCOCc1ccccc1)=Cc1ccccc12 [Example 395]
Exercise: Pick the one with the larger pKi: I vs II To answer, give the label that identifies your chosen option.
Key: II

====

- measurement_target: Mcl-1 protein (UniProtKB Q07820) (Homo sapiens (Human), UniProt Q07820)
- procedure_details: Inhibition of Mcl-1 by the fluorescence polarisation assay (Example A, Method A)
- condition_info: fluorescence polarization assay
attribute_measured: Ki (nM)

COc1ccc(CCOCC2=Cc3ccccc3[C@]23CC[C@@](Nc2cccc(Cl)c2)(C(=O)O)CC3)cc1    793

a. CC(C)C(COc1ccncc1)CC1Cc2ccccc2[C@]12CC[C@@](Nc1cccc(Cl)c1)(C(=O)O)CC2 (single isomer, unassigned) [Example 533]
b. O=C(NCCc1ccncc1)C1=Cc2ccccc2[C@]12CC[C@@](Nc1cccc(Cl)c1)(C(=O)O)CC2
c. O=C(O)[C@]1(Nc2cccc(Cl)c2)CC[C@@]2(CC1)c1ccccc1CC2[C@H]1C[C@@H]1COc1ccccc1 (relative stereo) [Example 110]
d. COCCOc1cccc(C2=Cc3ccccc3[C@]23CC[C@@](Nc2cccc(Cl)c2)(C(=O)O)CC3)c1
e. O=C(O)[C@]1(Nc2cccc(Cl)c2)CC[C@]2(CC1)C(c1cccc(OCc3ccncc3)c1)=Cc1ccccc12
Exercise: Hi! Can you put these in order of Ki, lowest number first? A ranking is expressed here by listing the labels in the requested order.
Key: e, d, a, c, b

====

- measurement_target: Mcl-1 protein (UniProtKB Q07820) (Homo sapiens (Human), UniProt Q07820)
- procedure_details: Inhibition of Mcl-1 by the fluorescence polarisation assay (Example A, Method A)
- condition_info: fluorescence polarization assay
pKi: −log10 of the molar value.
attribute_measured: pKi

Past entries and their recorded results:
O=C(O)[C@]1(Nc2cccc(Cl)c2)CC[C@@]2(CC1)c1ccccc1CC2CCCOc1ccncc1C(F)(F)F (stereo partly shown) [Example 463]    7.23
CC(F)(COc1ccnc2c1CCC2)CC1Cc2ccccc2[C@]12CC[C@@](Nc1cccc(Cl)c1)(C(=O)O)CC2 (stereo partly shown) [Example 607]    6.79
O=C(O)C1(Nc2cccc(Br)c2)CCC2(CC1)c1ccccc1CC2CCCc1ccccc1 (single isomer, unassigned) [Example 150]    6.65
COc1ccc(C2=Cc3ccccc3[C@]23CC[C@@](Nc2cccc(Cl)c2)(C(=O)O)CC3)cc1C [Example 225]    5.99

P. O=C(O)[C@]1(Nc2cccc(Cl)c2)CC[C@]2(CC1)C(c1ccc(OCc3cccnc3)cc1)=Cc1ccccc12 [Example 350]
Q. COc1cc(OC)cc(C2=Cc3ccccc3[C@]23CC[C@@](Nc2cccc(Cl)c2)(C(=O)O)CC3)c1 [Example 308]
Exercise: Pick the one with the larger pKi: P vs Q To answer, give the label that identifies your chosen option.
Key: P

====

- measurement_target: Mcl-1 protein (UniProtKB Q07820) (Homo sapiens (Human), UniProt Q07820)
- procedure_details: Inhibition of Mcl-1 by the fluorescence polarisation assay (Example A, Method A)
- condition_info: fluorescence polarization assay
- Experimental: The relative binding potency of each compound was determined via Fluorescence Polarisation (FP). The method utilised a Fluorescein labelled ligand (Fluorescein-βAla-Ahx-A-REIGAQLRRMADDLNAQY-OH; MW 2,765) which binds to the Mcl-1 protein (such that Mcl-1 corresponds to the UniProtKB® primary accession number: Q07820) leading to an increased anisotropy measured in milli-polarisation (mP) units using a reader. […]
pKi: −log10 of the molar value.
attribute_measured: pKi

O=C(O)C1(Nc2cccc(Br)c2)CCC2(CCc3ccccc32)CC1 (stereo not shown)    6.03

1. Cc1ccc(CCOCC2=Cc3ccccc3[C@]23CC[C@@](Nc2cccc(Cl)c2)(C(=O)O)CC3)cc1
2. O=C(O)[C@]1(Nc2cccc(Br)c2)CC[C@@]2(C=Cc3c(Br)cccc32)CC1
3. CCC1=Cc2ccccc2[C@]12CC[C@](Nc1cccc(Br)c1)(C(=O)O)CC2
Exercise: Task field, ranking: reported pKi, descending order. A ranking is expressed here by listing the labels in the requested order.
Key: 2, 1, 3
